- assay-name: viability loss with induced miR-34 in A549 – imaging, A549 dox-inducible miR-34, nuclei and caspase counts, primary screen (AID 1347080)
- condition-description: A549 miR-34 inducible, Hoechst nuclei count, 48 h; measured here: total cells without miR-34 induction
Overview of recorded cell count for various compounds

| compound | cell count |
| --- | --- |
| C[C@]12C=CC(=O)C=C1CCC1C2C(O)C[C@@]2(C)C1CC[C@]2(O)C(=O)COC(=O)CCC(=O)O (stereo partly drawn) | 7850 |
| CC1CCN(CCC2CCCN2S(=O)(=O)c2cccc(O)c2)CC1 (stereo not drawn) | 8080 |
| CC1C=CC=CC=CC=CC=CC=CC=CC(OC2OC(C)C(O)C(N)C2O)CC2O[C@@](O)(CC(O)CC(O)C(O)CCC(O)CC(O)CC(=O)OC(C)C(C)C1O)CC(O)C2C(=O)O (stereo partly drawn) | 8160 |

----------
Overview of recorded fold change for various compounds
- assay-name: viability loss with induced miR-34 in A549 – imaging, A549 dox-inducible miR-34, nuclei and caspase counts, primary screen (AID 1347080)
- condition-description: A549 miR-34 inducible, Hoechst nuclei count, 48 h; stronger effect = lower value; cell number ratio, induced over uninduced

| compound | fold change |
| --- | --- |
| c1ccc(-c2ncc(-c3ccn[nH]3)s2)cc1 | 0.881 |
| CC1(C)C(OC2OC(C(=O)O)C(O)C(O)C2OC2OC(C(=O)O)C(O)C(O)C2O)CC[C@@]2(C)[C@H]1CC[C@]1(C)[C@H]2C(=O)C=C2[C@H]3C[C@@](C)(C(=O)O)CC[C@]3(C)CC[C@]21C (stereo partly drawn) | 0.916 |
| CC1(C)CC(Nc2nccc(-c3cnn(-c4ccccc4)c3)n2)CC(C)(C)N1 | 0.881 |

----------
- assay-name: MELAS cybrid and Rieske KO viability enhancers – cell-based, MELAS cybrids, Rieske KO mouse fibroblasts, CellTiter-Glo, primary screen (AID 1508586);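 also: z relative to plate mean and SD of compound and empty wells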
- condition-description: Rieske KO mouse fibroblast survival, low glucose, CellTiter-Glo 72 h
Entry flag: fulfilled if z-score reaches 0.09; not fulfilled if it does not.

| compound | category |
| --- | --- |
| CCC(=O)OCC(=O)[C@]1(OC(=O)CC)C(C)C[C@H]2[C@@H]3CCC4=CC(=O)C=C[C@]4(C)[C@]3(Cl)C(O)C[C@@]21C (stereo not given in full) | not fulfilled |
| Cc1c(CN2CCc3c(c(C(=O)NC4CCCC4)nn3CC(C)C)C2)c(=O)n(-c2ccccc2)n1C | not fulfilled |
| c1ccc(-c2ncc(-c3ccn[nH]3)s2)cc1 | not fulfilled |
| Cc1cc(C)nc(-c2cnn(CC(=O)Nc3cc(C)nn3-c3ccccn3)c2)n1 | not fulfilled |
| Cc1c(Cc2ccc3ccccc3n2)c2cc(F)ccc2n1CC(=O)O | not fulfilled |
| Cc1nn(C)c(C)c1-c1ccnc(N2CCCC2c2nc(-c3cccnc3)no2)n1 (stereo not given) | fulfilled |
| CCn1c(N)c(C(=O)NC)c(=O)c2ccc(C#C[C@@](C)(O)COC)nc21 | not fulfilled |
| O=C(NN=Cc1ccc([N+](=O)[O-])o1)c1ccc(O)cc1 | not fulfilled |
| COCCn1c(C(=O)OC)c(NC(=O)Cc2ccccc2)c2cc(NC(C)CCO)cnc21 (stereo not given) | fulfilled |
| O=C(O)C1=COC(OC2OC(CO)C(O)C(O)C2O)[C@@H]2C(CO)=CC[C@H]12 (stereo not given in full) | fulfilled |
| O=C(Nc1ncc(SCCN2CCCC2)s1)[C@]1(c2ccc(S(=O)(=O)C3CC3)cc2)CC1C1CCCCC1 (stereo not given in full) | not fulfilled |
| CC(C)OC(=O)C(C)N[P@](=O)(OCC1OC(n2ccc(=O)[nH]c2=O)[C@](C)(F)C1O)Oc1ccccc1 (stereo not given in full) | fulfilled |
| CC1=C(CC(=O)O)c2cc(F)ccc2/C1=C/c1ccc(S(C)=O)cc1 (stereo not given) | not fulfilled |
| COc1ccc2nc(Cn3cnc4cc(F)ccc4c3=O)[nH]c2c1 | not fulfilled |
| CN1CCC(CN(C)Cc2ccc(-c3nc(-c4cccnc4)cc(=O)[nH]3)cc2)CC1 | not fulfilled |
| CC[C@@H]1NC(=O)[C@H]2CN(C(=O)Oc3cccc4ccccc34)CCN2C1=O | fulfilled |
| CN(Cc1nc(-c2ccccc2)cs1)C1CCc2c(c(C(=O)N3CCSCC3)nn2C)C1 (stereo not given) | not fulfilled |
| NC[C@@H]1O[C@H](O[C@H]2[C@@H](O)[C@H](O[C@@H]3[C@@H](O)[C@H](N)C[C@H](N)[C@H]3OC3O[C@H](CO)[C@@H](O)[C@H](O)[C@H]3N)O[C@@H]2CO)[C@H](N)[C@@H](O)[C@@H]1O (stereo not given in full) | not fulfilled |
| O=C(O)CCCNC(=O)NC1CCCCC1 | not fulfilled |
| CC(C)n1cc(-c2cc(C(=O)N(C)Cc3ccncc3)c3cc(F)ccc3n2)cn1 | fulfilled |
| O=C(Nc1ccccc1Cl)N[C@H]1C[C@H]2C(=O)N[C@H](Cc3ccc(O)cc3)C(=O)N2C1 | not fulfilled |
| CC(=O)C=Cc1cn(C)c2ccccc12 | fulfilled |
| O=c1[nH]cnc2c1ncn2C1OC(CO)C(O)C1O (stereo not given) | not fulfilled |
| CCNC(=O)c1[nH]nc(-c2cc(Cl)c(O)cc2O)c1-c1ccc(OC)cc1 | not fulfilled |
| CC1CC(C(=O)O)C2CC[C@]3(C)C(=CC[C@H]4[C@@]5(C)CCC(O)C(C)(C)[C@@H]5CC[C@]43C)[C@H]2C1C (stereo not given in full) | fulfilled |
| CN1CCC(NC(=O)c2cc(-c3c(O)cc(O)cc3Oc3ccc([N+](=O)[O-])cc3)on2)CC1 | not fulfilled |
| Nc1nccc2c1ncn2C1C=C(CO)C(O)C1O (stereo not given) | not fulfilled |
| COc1ccc(OC)c(-c2nc3ccccc3o2)c1 | fulfilled |
| CCCCCCCCCCCCCCCC(=O)O[C@@H]1[C@@H](O)[C@@H](O)[C@@H](C(NC(=O)[C@@H]2C[C@@H](CCC)CN2C)C(C)Cl)O[C@@H]1SC (stereo not given in full) | not fulfilled |
| CC[C@]1(O)C[C@@H]2CN(CCc3c([nH]c4ccccc34)[C@@](C(=O)OC)(c3cc4c(cc3OC)N(C=O)[C@@H]3[C@@]45CCN4CC=C[C@@](CC)(C(OC(C)=O)[C@]3(O)C(=O)OC)[C@H]45)C2)C1 (stereo not given in full) | not fulfilled |
| Cc1ccc2c(-c3cc4c(n(CC5CC5)c3=O)CCN(C(=O)c3ccc5c(c3)OCO5)C4)cccc2n1 | fulfilled |
| CC1(C)O[C@@H]2C[C@H]3[C@@H]4C[C@@H](F)C5=CC(=O)C=C[C@]5(C)[C@]4(F)C(O)C[C@]3(C)[C@@]2(C(=O)CO)O1 (stereo not given in full) | not fulfilled |
| O=C(Nc1ccc(S(=O)(=O)Nc2ccccc2Cl)c(Cl)c1)c1ccccn1 | not fulfilled |
| COc1ccc(CC(C)NCC(O)c2ccc(O)c(NC=O)c2)cc1 (stereo not given) | not fulfilled |

----------
- assay-name: drug combination growth inhibition, ovarian cancer – cell-based, oncology-focused library, rucaparib conditional, profiling panel (AID 1508598)
- condition-description: patient-derived ovarian cancer cells, CellTiter-Glo viability, 144 h; at 0.313 µM; OCI-C5x cells; with rucaparib 10 µM; 100% = cells with rucaparib alone
The source made the active and inactive calls.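 Rule for the calls: active = normalized viability below 100% at a tested concentration; inactive = the rest.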
Outcome codes: 1.0 = active, 0.0 = inactive

| compound | category |
| --- | --- |
| CCOC(=O)c1cnc2ccc(-c3cncc(NS(=O)(=O)c4ccccc4)c3)cn12 | 1.0 |
| CO[C@H]1/C=C\C=C(\C)C(=O)NC2=CC(=O)C(NCCN(C)C)=C(C[C@@H](C)C[C@H](OC)[C@H](O)[C@@H](C)/C=C(\C)[C@@H]1OC(N)=O)C2=O | 1.0 |
| C[C@@H]1C[C@H]2[C@@H]3CCC4=CC(=O)C=C[C@]4(C)[C@]3(F)[C@H](O)C[C@]2(C)[C@]1(O)C(=O)CO | 0.0 |
| CCOC(=O)NCCCC(=O)NCCc1ccccc1 | 0.0 |
| CO[C@H]1C[C@H]2CC[C@@H](C)[C@@](O)(O2)C(=O)C(=O)N2CCCC[C@H]2C(=O)O[C@H]([C@H](C)C[C@@H]2CC[C@H](OC(=O)C(C)(CO)CO)[C@H](OC)C2)CC(=O)[C@H](C)/C=C(\C)[C@@H](O)[C@@H](OC)C(=O)[C@H](C)C[C@H](C)/C=C/C=C/C=C/1C | 1.0 |
| CCNC(=O)c1noc(-c2cc(Cl)c(O)cc2O)c1-c1ccc(OC)cc1 | 1.0 |
| COc1cc2c(cc1O)CC[C@@H]1[C@H]2CC[C@]2(C)[C@H](O)CC[C@@H]12 | 0.0 |
| COc1ccc(C2=N[C@H](c3ccc(Cl)cc3)[C@@H](c3ccc(Cl)cc3)N2C(=O)N2CCNC(=O)C2)c(OC(C)C)c1 | 0.0 |
| CO[C@H]1C[C@@H]2CC[C@@H](C)[C@@](O)(O2)C(=O)C(=O)N2CCCC[C@H]2C(=O)O[C@H]([C@H](C)C[C@@H]2CC[C@@H](O)[C@H](OC)C2)CC(=O)[C@H](C)/C=C(\C)[C@@H](O)[C@H](OC)C(=O)[C@H](C)C[C@H](C)/C=C/C=C/C=C/1C | 0.0 |
| C[C@@]1(c2nc3c(C(N)=O)cccc3[nH]2)CCCN1 | 0.0 |
| COc1ccc(C2=N[C@@H](c3ccc(Cl)cc3)[C@H](c3ccc(Cl)cc3)N2C(=O)N2CCNC(=O)C2)c(OC(C)C)c1 | 1.0 |
| O=C(/C=C/c1ccc2ccccc2n1)c1ccncc1 | 0.0 |
| CC(=O)O[C@H]1C(=O)[C@@]2(C)C([C@H](OC(=O)c3ccccc3)[C@]3(O)C[C@H](OC(=O)[C@H](O)[C@@H](NC(=O)c4ccccc4)c4ccccc4)C(C)=C1C3(C)C)[C@]1(OC(C)=O)CO[C@@H]1C[C@H]2O (some centres undefined) | 1.0 |
| CC(C)CC(CC(=O)NO)C(=O)N[C@@H](Cc1ccc2ccccc2c1)C(=O)N[C@@H](C)C(=O)NCCN (some centres undefined) | 0.0 |
| Cc1[nH]c(C=C2C(=O)Nc3ccc(S(=O)(=O)N(C)c4cccc(Cl)c4)cc32)c(C)c1C(=O)N1CCN(C)CC1 | 0.0 |
| CC1(C)C=C(CN2C/C(=C/c3ccc(F)cc3)C(=O)/C(=C/c3ccc(F)cc3)C2)C(C)(C)N1O | 0.0 |
| O=c1[nH]c(=O)n([C@@H]2C[C@H](O)[C@@H](CO)O2)cc1F | 0.0 |
| COc1cc([C@H]2c3cc4c(cc3[C@@H](O[C@@H]3O[C@@H]5CO[C@@H](c6cccs6)O[C@H]5[C@H](O)[C@H]3O)[C@H]3COC(=O)[C@H]23)OCO4)cc(OC)c1O | 1.0 |
| O=C1[C@H](CC[C@H](O)c2ccc(F)cc2)[C@H](c2ccc(O)cc2)N1c1ccc(F)cc1 | 0.0 |
